SUBJECT_OF_TEST: T1, rat PTH-1R (rat PTHR endogenously expressed on UMR-106 rat osteosarcoma cells) (rat, UniProt P25961 27-591)
T1 sequence (looked up): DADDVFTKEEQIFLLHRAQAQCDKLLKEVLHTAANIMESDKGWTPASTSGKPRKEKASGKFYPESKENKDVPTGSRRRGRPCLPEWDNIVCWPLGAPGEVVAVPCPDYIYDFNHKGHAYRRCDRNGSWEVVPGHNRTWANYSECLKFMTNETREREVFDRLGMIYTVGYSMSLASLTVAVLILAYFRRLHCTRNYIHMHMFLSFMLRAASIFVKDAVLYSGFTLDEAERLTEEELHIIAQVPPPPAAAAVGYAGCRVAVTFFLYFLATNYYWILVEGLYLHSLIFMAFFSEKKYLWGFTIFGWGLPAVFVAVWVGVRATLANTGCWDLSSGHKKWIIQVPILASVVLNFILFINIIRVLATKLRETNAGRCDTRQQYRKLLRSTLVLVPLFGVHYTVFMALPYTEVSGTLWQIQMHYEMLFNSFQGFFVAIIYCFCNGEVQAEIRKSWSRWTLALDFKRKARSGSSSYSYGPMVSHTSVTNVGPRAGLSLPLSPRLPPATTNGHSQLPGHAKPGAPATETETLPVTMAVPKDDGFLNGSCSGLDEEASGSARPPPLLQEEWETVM
EXPERIMENT_SUMMARY: cell-based or functional assay
Where no end group is shown, it is not given here. [ ]: non-standard residue; d: D form. Bip(2'-Et-4'-OMe) = CCc1cc(OC)ccc1-c1ccc(C[C@H](N)C(=O)O)cc1; αMePhe(2,6-F2) = C[C@](N)(Cc1c(F)cccc1F)C(=O)O; αMePhe(2-F) = C[C@](N)(Cc1ccccc1F)C(=O)O; hhPhe = N[C@@H](CCCc1ccccc1)C(=O)O; hArg = N=C(N)NCCCC[C@H](N)C(=O)O; hCit = NC(=O)NCCCC[C@H](N)C(=O)O; Cit = NC(=O)NCCC[C@H](N)C(=O)O; αMeP = C[C@@]1(C(=O)O)CCCN1; Nle = CCCC[C@H](N)C(=O)O; Orn = NCCC[C@H](N)C(=O)O; Ac5c = NC1(C(=O)O)CCCC1; Aib = CC(C)(N)C(=O)O
READOUT_LABEL: cAMP released with respect to control, 10 nM peptide, UMR-106 cells

Answered examples (3):
1) [Aib]V[Aib]EIQ[αMePhe(2,6-F2)][Nle]HQ[Orn]A[αMePhe(2,6-F2)][αMePhe(2,6-F2)] [Seq. ID. 325]	98 percent of control
2) [Aib]V[Ac5c]EIQ[αMePhe(2,6-F2)][Nle]HQ[hArg][αMeP]K[αMePhe(2-F)] [Seq. ID. 78]	73 percent of control
3) [Ac5c]V[Aib]EIQL[Nle]HQ[Orn]A[Aib][Bip(2'-Et-4'-OMe)][hhPhe] [Seq. ID. 751]	88 percent of control

Problem: What does the record list as cAMP released with respect to control, 10 nM peptide, UMR-106 cells for [Aib]V[Aib]EIQ[αMePhe(2,6-F2)][Nle]HQ[αMePhe(2,6-F2)]A[Aib][αMePhe(2,6-F2)] [Seq. ID. 501] ?
Result: 71 percent of control

Problem: Thanks! And [Ac5c]V[Aib]EIQ[αMePhe(2-F)][Nle]HQ[Orn][Aib][Cit][αMePhe(2,6-F2)] [Seq. ID. 292] ?
Result: 104 percent of control

Problem: Thanks! And [Ac5c]V[Aib]EIQL[Nle]HQ[hCit]A[Cit][Bip(2'-Et-4'-OMe)][hhPhe] [Seq. ID. 781] ?
Result: 57 percent of control

Each recorded value in this set is attributed to patent US8383581B2.
